# Assay Text: Area under the curve determinations of plasma levels in rats (rrAUC), oral 10 mg/kg
# Type: in vivo
# Condition Details: rat, plasma 0.5-6 h, read-out: RR AUC (rapid rat AUC, rrAUC)
Readout: AUC (µM·h)
Please state the figure in µM·h; there is no need to write the unit.

Check out these entries, answers already filled in.
| Molecule | Unit Tag | AUC |
| --- | --- | --- |
| COc1ccc2c(c1F)C(=O)N(C[C@@]1(c3cc4nc(N5CCNC5=O)c(F)cc4o3)NC(=O)NC1=O)C2 [Compound 1331] | µM·h | 0.67 |
| COc1ccc2c(c1F)C(=O)N(C[C@@]1(c3cc4nc(N5CCN(C6CC6)CC5)ccc4o3)NC(=O)NC1=O)C2 [Compound 1711] | µM·h | 5.09 |
| COc1ccc2c(c1F)C(=O)N(C[C@@]1(c3cc4nc(C5(C)NC(=O)NC5=O)ccc4o3)NC(=O)NC1=O)C2 (mixture of isomers) [Compound 1901] | µM·h | 1.07 |
| CCC1(c2cc(F)c3oc([C@]4(CN5Cc6ccc(OC)c(F)c6C5=O)NC(=O)NC4=O)cc3c2)NC(=O)NC1=O (stereo partly drawn) [Compound 1305] | µM·h | 1.87 |
| COc1ccc2c(c1F)C(=O)N(C[C@@]1(c3cc4cc(C5(C)NC(=O)NC5=O)cnc4o3)NC(=O)NC1=O)C2 (stereo partly drawn) [Compound 504] | µM·h | 3.66 |

Could you now look at the following molecule, please?
Query string: May I ask what AUC has been recorded for CCN1CCC(c2nc3cc([C@]4(CN5Cc6ccc(OC)c(F)c6C5=O)NC(=O)NC4=O)oc3cc2F)CC1 [Compound 1325] ?
Result string: 0.009
